# test_summary: gradient 5% acetonitrile 3 min, to 50% in 2 min, to 85% in 15 min, held 3 min, 100 µL/min
# experimental_conditions: column: Zorbax Extend-C18 2.1 x 50 mm; eluents: water / acetonitrile, 0.1% formic acid
observable: RP-LC retention time (s)

CN1C(=O)c2cc(C(=O)NCCc3ccccc3Cl)nn2CC1(C)C(=O)NCc1ccccc1 (centres undefined) ... 816
COCCOc1cc(=O)n2c(c1C(=O)NC1CCC1)CCOCC2 ... 575
COc1ccccc1Cc1nc(-c2cn(-c3cccc(F)c3)nn2)no1 ... 1040
C=CCN1C(=O)COc2ccc(-c3nc(NC(=O)c4cc(OC)c(OC)c(OC)c4)sc3C)cc21 ... 1050

====

# test_summary: gradient 5% acetonitrile 3 min, to 50% in 2 min, to 85% in 15 min, held 3 min, 100 µL/min
# experimental_conditions: column: Zorbax Extend-C18 2.1 x 50 mm; eluents: water / acetonitrile, 0.1% formic acid
Hi! Could you tag entries with RP-LC retention time below 800 s as condition met, and those at or above as condition not met? Much appreciated.

O=C(Cn1ncc2c(c1=O)N(CC1CC1)C(=O)CS2)Nc1ccccc1C(F)(F)F ... condition not met
O=C(O)c1ccc(N2CCCC(CN3CCCC3)C2)c(NS(=O)(=O)c2ccccc2)c1 (stereo unspecified) ... condition met
Cc1cccc2c(C(=O)NC3CC3)c3c(nc12)CCC3 ... condition met
Cc1cccn2c(=O)c3cc(C(=O)NCCc4ccc(S(N)(=O)=O)cc4)n(C)c3nc12 ... condition met
CCCCn1nnnc1NCc1ccc2c(c1)n(C)c(=O)n2C ... condition met
Cc1cccn2c(Nc3ccc4c(c3)OCCO4)c(-c3cccc(Cl)c3)nc12 ... condition met
CCc1nc(N)n(CC(=O)Nc2ccc(Br)cc2)c(=O)c1C ... condition met
NC(=O)CCSc1nnc(SCC(=O)c2ccccc2)s1 ... condition met
CCc1ccccc1NS(=O)(=O)c1cn(CC(C)C)c2ncccc12 ... condition not met
CCCc1nc(-c2c(C)cc(C)nc2NC(=O)c2ccccc2Br)no1 ... condition not met
COc1ccc(-c2cc(N3CCN(C(=O)NCCC(C)C)CC3)ncn2)cc1OC ... condition met
COc1ccc(-c2ccc3nc(N4CCC(C(=O)NC(C)C)CC4)sc3n2)cc1 ... condition not met
O=S(=O)(c1ccc(F)cc1)N1CCc2nc(-c3ccccc3)ncc2C1 ... condition not met

====

The molecules listed here are annotated with their RP-LC retention time.
# test_summary: gradient 5% acetonitrile 3 min, to 50% in 2 min, to 85% in 15 min, held 3 min, 100 µL/min
# experimental_conditions: column: Zorbax Extend-C18 2.1 x 50 mm; eluents: water / acetonitrile, 0.1% formic acid
observable: RP-LC retention time (s)

Cc1cc(-c2ccc(S(=O)(=O)N3CCC(C(=O)N4CCCC4)CC3)o2)n[nH]1 ... 679
Cc1ccc(-c2nnc(-c3cccc(S(=O)(=O)NCc4ccco4)c3)o2)cc1 ... 968
C=CCNC(=O)c1nc(C(=O)N2CCc3ccccc3C2)cs1 ... 811
COc1ccc2[nH]cc(CCNC(=O)CCC(=O)N3Cc4cccn4-c4ccccc43)c2c1 ... 850
COc1ccc(NC(=O)c2[nH]c3cc(C)sc3c2CN(C)C)c(OC)c1 ... 678
Cc1ccc(-c2noc(Cn3ncn4nc(-c5cc(C)ccc5C)cc4c3=O)n2)cc1 ... 878
CCNC(=O)c1cc(C2CC2)[nH]n1 ... 611
COc1cc(NC(=O)Cn2nc(C(=O)N3CCCC3)c3ccccc32)cc(OC)c1 ... 641
O=C(Cc1ccc(F)cc1)N1CCC2(CC1)N=C(c1ccc(Cl)cc1)NO2 ... 889
COCCNC(=O)C1CCCN(c2nn3cc(-c4ccc(F)cc4)nc3s2)C1 (stereo not given) ... 756
CCOc1ccc(NS(=O)(=O)c2cc(C(=O)N3CCN(c4ccccn4)CC3)n[nH]2)cc1 ... 619
O=C(Nc1ccccc1NC(=O)c1ccccc1C(F)(F)F)c1cccs1 ... 835
COc1ccc(NC(=O)Cn2c(=O)nc(N3CCC(C)CC3)c3ccccc32)cc1OC ... 768
Ic1cccc(/C=N/Nc2nc(N3CCOCC3)nc(N(c3ccccc3)c3ccccc3)n2)c1 ... 1140
Cc1csc(-c2ccc(N3CCN(C(=O)c4ccsc4)CC3)nc2)n1 ... 762

====

# test_summary: gradient 5% acetonitrile 3 min, to 50% in 2 min, to 85% in 15 min, held 3 min, 100 µL/min
# experimental_conditions: column: Zorbax Extend-C18 2.1 x 50 mm; eluents: water / acetonitrile, 0.1% formic acid
The molecules listed here are annotated with their RP-LC retention time.
observable: RP-LC retention time (s)

Cc1cc2c(N3CCCC(C(=O)N4CCN(c5ccc(F)cc5)CC4)C3)nccc2s1 (stereo not drawn) ... 726
Cc1nc(-c2ccncc2)nc2c1CC(=O)N2C1CCCC1 ... 703
CCOc1ccc(Nc2c(-c3cccc(O)c3)nc3cnccn23)cc1 ... 746

====

# test_summary: gradient 5% acetonitrile 3 min, to 50% in 2 min, to 85% in 15 min, held 3 min, 100 µL/min
# experimental_conditions: column: Zorbax Extend-C18 2.1 x 50 mm; eluents: water / acetonitrile, 0.1% formic acid
observable: RP-LC retention time (s)

CC(C)NC(=O)N1CCC(c2noc(-c3ccncc3)n2)C1 (stereo unspecified) ... 626
CNC(=O)[C@@H]1CN(C(=O)Cc2c(C)noc2C)C[C@H]1c1nc(C)no1 ... 599
CCOC(=O)c1cc2n(n1)CC(C)(C(=O)NCc1ccccc1)N(Cc1ccccc1)C2=O (stereo unspecified) ... 880
CCn1c(=O)c(NCc2ccccc2Cl)nc2ccncc21 ... 659
CN(C)C(=O)CN1CCN(c2cc(C(=O)O)c3cc(NC(=O)c4ccc(F)cc4)ccc3n2)CC1 ... 579
CC(=O)N1CCC2(CC1)OC(=O)C(C)=C2C(=O)NC1CCN(Cc2ccccc2)CC1 ... 581
O=C(C1=CN(c2ccc3c(c2)OCCO3)c2cc(Cl)ccc2S1(=O)=O)N1CCCC1 ... 838
COc1ccc(-c2nnc(Cc3nc(-c4cccc(Cl)c4)no3)o2)cc1 ... 1020
CCCCS(=O)(=O)c1cc2c(cc1NC(=O)c1ccccc1Br)n(C)c(=O)n2C ... 896
CCC(C(=O)NCCc1ccc(Cl)cc1)n1cnc2oc(C)c(C)c2c1=O (stereo unspecified) ... 924
COc1ccc(Cc2nc(-c3cccc(-c4ccn[nH]4)c3)no2)c(Cl)c1 ... 1000
CC(C)(c1cc(Cl)c(O)c(CN2CCOCC2)c1)c1cc(Cl)c(O)c(CN2CCOCC2)c1 ... 630
O=C(CCC1CCCC1)N1CCc2c([nH]c3ccccc23)C1c1ccc(Cl)cc1 (stereo unspecified) ... 1060
COc1cccc(NS(=O)(=O)c2cc3c(s2)CCN(C(=O)C2CC2)C3)c1 ... 801
CN(CC1CCOC1)C(=O)Nc1cccc(Cl)c1F (stereo unspecified) ... 733
COc1ccccc1NC(=O)N1CCC2(CC1)NC(=O)c1cc(F)ccc1N2C ... 756

====

# test_summary: gradient 5% acetonitrile 3 min, to 50% in 2 min, to 85% in 15 min, held 3 min, 100 µL/min
# experimental_conditions: column: Zorbax Extend-C18 2.1 x 50 mm; eluents: water / acetonitrile, 0.1% formic acid
Hi! Could you tag entries with RP-LC retention time below 700 s as rule met, and those at or above as rule not met? Much appreciated.

COCC1CN(C2CCC2)CC12CCN(C(=O)Cc1ccsc1)CC2 (stereo not given) ... rule met
COc1ccc(-n2c(CN3CCN(C(=O)NC4CCCCC4)CC3)nc3cccnc32)cc1 ... rule met
CC(NC(=O)CC1CCN(S(=O)(=O)c2ccccc2)CC1)c1ccc2c(c1)OCCO2 (stereo not given) ... rule not met
O=C(c1n[nH]c2ccccc12)N1CCCn2nc(-c3ccncc3)cc2C1 ... rule met

====

# test_summary: gradient 5% acetonitrile 3 min, to 50% in 2 min, to 85% in 15 min, held 3 min, 100 µL/min
# experimental_conditions: column: Zorbax Extend-C18 2.1 x 50 mm; eluents: water / acetonitrile, 0.1% formic acid
observable: RP-LC retention time (s)

O=C(Cc1ccsc1)Nc1cccc(-c2nnc3n2CCCC3)c1 ... 668
CCNC(=O)c1[nH]c2ccc(F)cc2c1N1CCCC1=O ... 676
CCC1CN(C(=O)N2CCC(C(=O)NCCN3CCCC3)CC2)c2ccccc2O1 (configuration not stated) ... 620
Cc1noc(C)c1-c1ccc(S(=O)(=O)N2CCc3ccccc3C2)cc1 ... 1050
Cc1nn(C)c(C)c1CNC(=O)CN1C(=O)C2CCCCN2c2ccc(S(=O)(=O)N(C)C)cc21 (configuration not stated) ... 693
CCNC(=O)C1=CCN(C(=O)c2cc(C)cc(C)c2)CC1 ... 720
COc1ccc(C(=O)N(CCS(=O)(=O)N2CCNCC2)CC2CCCO2)cc1 (configuration not stated) ... 609
Cc1c(C(=O)N2CCOCC2)cnn1-c1cc(-c2nc(C(C)C)no2)ccn1 ... 840
O=C(c1ccco1)N1CCCC1c1nc(-c2cccc(C(F)(F)F)c2)no1 (configuration not stated) ... 1020
CCOc1ccc(-c2nc(NC(=O)c3c(F)cccc3F)sc2C)cc1 ... 1110
O=C(CSc1cccc2cccnc12)NCCc1ccc(Cl)cc1 ... 786
COc1ccc(-c2nc(C)cc(C)c2CNC(=O)C2CCCC2)cc1 ... 638
